Test system: Madin-Darby bovine kidney (MDBK) cells
Assay: In vitro MTT cytotoxicity assay on MDBK cells
Assay type: cell-based
Details: MDBK cells, 10 μM, 24 h, MTT
Reported Average cell viability (%) values for a set of molecules
MEASUREMENT NAME: Average cell viability (%)

>>> result("Oc1cc(O)c2c(c1)OC(c1ccc(O)c(O)c1)C(O)C2 (stereo not shown)")
"109.8%"
>>> result("COc1ccc(-c2cc(=O)c3c(O)c(C)c(OC)cc3o2)cc1")
"98.7%"
>>> result("O=C(CCc1ccc(O)cc1)c1c(O)cc(O)cc1O[C@@H]1O[C@H](CO)[C@@H](O)[C@H](O)[C@H]1O")
"98.2%"
>>> result("COC1OC(CO)C(O)C(O)C1O (stereo not drawn) [Component F-2, β-Methylglucoside]")
"104.6%"
>>> result("O=C(CCc1ccc(O)cc1)c1c(O)cc(O[C@@H]2O[C@H](CO)[C@@H](O)[C@H](O)[C@H]2O)cc1O")
"91.4%"
>>> result("C[C@@H]1O[C@@H](O[C@H]2[C@H](O)[C@@H](O)[C@H](OC[C@H]3O[C@@H](OC(=O)[C@]45CCC(C)(C)C[C@H]4C4=CC[C@@H]6[C@@]7(C)CC[C@H](O[C@@H]8OC[C@H](O)[C@H](O)[C@H]8O[C@@H]8O[C@H](CO)[C@@H](O)[C@H](O)[C@H]8O)[C@@](C)(CO)[C@@H]7CC[C@@]6(C)[C@]4(C)CC5)[C@H](O)[C@@H](O)[C@@H]3O)O[C@@H]2CO)[C@H](O)[C@H](O)[C@H]1O [Component I-1, Cauloside G]")
"103.7%"
>>> result("COc1cc(CCc2ccccc2O)cc(OC)c1O")
"107.0%"

Entry source: paper PMC11362645
